assay: modulators of S6 phosphorylation in cells, primary screen, cell-based, A549, cytoblot, luminescence, serum-stimulated (AID 1158); settings: A549 phospho-S6 cytoblot, 5 h, higher = more signal;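 further: serum-stimulated A549 lung adenocarcinoma cells; signal is phosphorylated S6 detected by cytoblot immunostaining with HRP secondary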
property.measured: z-score
Give a plain numeric answer without units written out.

Previously resolved entries follow.
compound	property.measured	value.measured
Cc1ccc(S[C@]2(C(=O)NCC(C)C)CC(=O)N(C(C)C)[C@@H]2c2ccc(CO)cc2I)cc1	z-score	0.363
COCCOC(=O)N1C(=O)[C@@]2(c3cc(C#CCC(C(=O)OC)C(=O)OC)ccc31)[C@H](C(N)=O)[C@H]1C(=O)O[C@H](c3ccccc3)[C@H](c3ccccc3)N1[C@@H]2c1ccccc1OCCO	z-score	4.47
CC(C)C[C@H]1NC(=O)CNC(=O)[C@@]23C(=O)N[C@@H](Cc4ccccc4)C2[C@H](C)[C@@]2(C)O[C@H]2C3/C=C/C/C=C\CNC1=O (some centres not stated)	z-score	0.662
COc1ccc(C(O)C2C=CC3C(=O)N(c4ccccc4)C(=O)C3N2Nc2ccccc2F)c2ccccc12 (configuration not stated)	z-score	-0.593
CCCC1(C(=O)OC)C=C2C(=C(C(C)C)C(=O)C2C)CN1 (configuration not stated)	z-score	-0.598

Consider the compound O=C1C2C=CC(C(O)C3CCCCC3)N(Nc3ccccc3F)C2C(=O)N1c1ccccc1 (configuration not stated) and give its measured z-score.
2.15

Consider the compound COc1ccc(C(O)C2C=CC3C(=O)N(C)C(=O)C3N2Nc2ccccc2)cc1 (configuration not stated) and give its measured z-score.
-0.423

Values were extracted from PubChem BioAssay.
